Origin of the recorded values: patent US10626094B2

- System name: LMPTP-A (Low Molecular Weight Protein Tyrosine Phosphatase-A) enzyme (Homo sapiens (Human))
- Sequence (P24666 whole entry): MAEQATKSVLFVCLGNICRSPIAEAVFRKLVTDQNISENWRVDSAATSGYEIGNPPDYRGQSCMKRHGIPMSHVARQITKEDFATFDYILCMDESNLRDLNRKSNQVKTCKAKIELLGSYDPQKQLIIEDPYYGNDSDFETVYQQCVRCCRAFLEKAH
- Measurement description: LMPTP primary screening / LMPTP (OMFP) enzyme inhibition assay, fluorescence intensity
- Format: biochemical
- Measurement context: Table 2 quinoline series; CP sample (cherry pick of DMSO solution from NIH MLSMR); read-out: LMPTP (OMFP) (IC50)
pIC50: −log10 of the molar value.
Measured parameter: pIC50

- Structure notation: "c1ccc(-c2cc(NCCN3CCCCC3)c3ccccc3n2)cc1"
  Measured parameter: "pIC50"
  Measured result: 5.46

###

- Measurement description: rodent pharmacokinetics in male C57BL/6 mice (IV, PO, IP)
- Assay type: in vivo, mouse
- Measurement context: mouse, in vivo; male C57BL/6 mice, IP, 9.69 mg/kg
Measured parameter: Cmax (µg/mL)

- Molecule: "COc1ccc(-c2cc(NCCCN3CCCCC3)c3ccccc3n2)cc1 [Compound D1]"
  Measured result: 0.365
